This collection of values is drawn from PubChem BioAssay (NCATS).

Would you mind telling me the reported activity change, negative = thiol reactive of each entry?
# assay: Primary fluorescence-based thiol-reactive (MSTI) qHTS assay for identification of artifact compounds. (AID 1845221);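 note: thiol-reactive compounds lower the probe fluorescence signal; nearly all actives have a fitted effect of over 65% in size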
# reported.conditions: MSTI thiol-reactivity probe, 1 h; series mostly up to 53.8 µM
Records with an inconclusive call do not appear. The source made the active and inactive calls. Calls come from the whole dose curve; as a rule, active = well fitted inhibition curve with a large enough effect; inconclusive = small, poorly fitted or top-dose-only effect; inactive = no such curve, though single readings can be large or run the other way.

Look up activity change, negative = thiol reactive of C/C=C(/C)C(=O)O[C@H]1[C@H](OC(=O)/C(C)=C\C)[C@@]23C(CC1(C)C)[C@]1(CCC4[C@@]5(C)CC[C@H](O[C@@H]6O[C@H](C(=O)O)[C@@H](O)[C@H](O[C@@H]7O[C@H](CO)[C@H](O)[C@H](O)[C@H]7O[C@@H]7O[C@@H](C)[C@H](O)[C@@H](O)[C@H]7O[C@@H]7OC[C@@H](O)[C@H](O)[C@H]7O)[C@H]6O[C@@H]6O[C@H](CO)[C@H](O)[C@H](O)[C@H]6O)C(C)(C)C5CC[C@@]4(C)[C@]1(C)C[C@H]2O)O[C@H]3O (stereo partly drawn) and report it.
718% [at 11.5 µM] (inactive)

Look up activity change, negative = thiol reactive of CC(=O)N[C@H]1[C@H](O[C@H]2CC[C@@]3(C)C(CC[C@]4(C)C3CC=C3C5CC(C)(C)CC[C@]5(C(=O)O)C(O)C[C@]34C)C2(C)C)O[C@H](CO[C@@H]2O[C@H](C)[C@H](O)[C@H](O)[C@H]2O[C@@H]2OC[C@@H](O)[C@H](O)[C@H]2O)[C@@H](O)[C@@H]1O (stereo partly drawn) and report it.
111% [at 11.5 µM] (inactive)

Look up activity change, negative = thiol reactive of CC(CCC1(O)OC2CC3C4CC=C5C[C@@H](O[C@@H]6O[C@H](CO)[C@@H](O[C@@H]7O[C@@H](C)[C@H](O)[C@@H](O)[C@H]7O)[C@H](O)[C@H]6O[C@@H]6O[C@@H](C)[C@H](O)[C@@H](O)[C@H]6O)CC[C@]5(C)C4CC[C@]3(C)[C@@]2(O)[C@@H]1C)CO[C@@H]1O[C@H](CO)[C@@H](O)[C@H](O)[C@H]1O (stereo partly drawn) and report it.
40.3% [at 11.5 µM] (inactive)

----------
Would you mind telling me the reported Potency of each entry?
# target.desc: Cytochrome P450 2D6 (Homo sapiens) (UniProt P10635)
# Sequence (P10635 whole entry, looked up): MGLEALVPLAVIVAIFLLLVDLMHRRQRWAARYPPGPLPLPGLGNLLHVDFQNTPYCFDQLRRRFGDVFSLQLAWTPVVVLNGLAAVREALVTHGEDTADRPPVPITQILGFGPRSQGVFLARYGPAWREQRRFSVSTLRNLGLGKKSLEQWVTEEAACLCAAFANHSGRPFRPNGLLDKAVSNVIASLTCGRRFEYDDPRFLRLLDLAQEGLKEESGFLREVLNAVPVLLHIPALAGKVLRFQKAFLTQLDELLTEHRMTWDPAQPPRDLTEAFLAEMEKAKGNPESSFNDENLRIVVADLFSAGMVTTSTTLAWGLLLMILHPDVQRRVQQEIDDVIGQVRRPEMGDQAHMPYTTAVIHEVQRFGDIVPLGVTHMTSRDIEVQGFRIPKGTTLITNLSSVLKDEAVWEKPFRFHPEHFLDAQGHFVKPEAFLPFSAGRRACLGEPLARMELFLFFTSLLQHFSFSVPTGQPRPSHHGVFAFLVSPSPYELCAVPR
# assay: Cytochrome P450 family 2 subfamily D member 6 (CYP2D6) small molecule antagonists: luciferase biochemical (cell-free) qHTS assay (AID 1645840); note: potency is the fitted concentration of half-maximal effect; nearly all actives have a fitted effect of over 55% in size
# reported.conditions: P450-Glo CYP2D6 enzyme, luciferin luminescence, 1 h; series mostly up to 57.4 µM
Inconclusive results are not listed. Calls of active or inactive are those of the source. Calls come from the whole dose curve; as a rule, active = well fitted inhibition curve with a large enough effect in the repeat runs; inconclusive = weak or mixed curves; inactive = flat fitted curve, though single readings scatter.

Recall the reported Potency of C#CC(=O)N(c1ccc(OC)cc1OC)C(C(=O)NCC(=O)OCC)c1cccs1 (stereo not given) on Cytochrome P450 2D6 (Homo sapiens) (UniProt P10635) and write it down.
12 µM (active)

Recall the reported Potency of CC1=C(C(=O)OC2CCCCC2)C(c2ccc([N+](=O)[O-])cc2)C2=C(CC(C)(C)CC2=O)N1 (stereo not given) on Cytochrome P450 2D6 (Homo sapiens) (UniProt P10635) and write it down.
21.3 µM (active)

Recall the reported Potency of COC[C@H](c1ccc(C(F)(F)F)cc1)N1CCN(C2(C)CCN(C(=O)c3c(C)ncnc3C)CC2)C[C@H]1C on Cytochrome P450 2D6 (Homo sapiens) (UniProt P10635) and write it down.
16.9 µM (active)

Recall the reported Potency of C=CCCN1CCC2(CC1)CN(C(=O)c1c(F)cccc1F)c1ccc(Cl)cc12 on Cytochrome P450 2D6 (Homo sapiens) (UniProt P10635) and write it down.
0.019 µM (active)

Recall the reported Potency of C[C@@H]1CCCN1CCc1cc2cc(-c3ccc(C#N)cc3)ccc2o1 on Cytochrome P450 2D6 (Homo sapiens) (UniProt P10635) and write it down.
13.5 µM (active)
